Protocol: basal HepG2 mitochondrial membrane potential changes, profiling panel, cell-based, JC-1 fluorescence, 24 h, 100 nL compound (AID 1167); further: test concentration not given here
Reported conditions: higher = more signal
Result type: z-score
Number, no unit, nothing else.

// recorded z-score for `COCCOC(=O)N1C(=O)[C@@]2(c3cc(C#Cc4ccc(OC)cc4)ccc31)[C@H](c1ccccc1OCCO)N1[C@H](c3ccccc3)[C@H](c3ccccc3)OC(=O)[C@H]1[C@@H]2C(=O)N1CCN(c2ncccn2)CC1` : 0.356

z-score in this record for `C#CCNC(=O)[C@H](Cc1ccccc1)NC(=O)CCC(=O)O` : -0.821

z-score reported for this compound `COc1ccc(C(=O)Nc2ccc(CN3C(=O)[C@@]4(O[C@@H](CCO)[C@H]([Si](C)(C)c5ccc(OC)cc5)[C@H]4C)c4ccccc43)cc2)cc1` : -2.53

Data origin: PubChem BioAssay
